tested on: Fibroblast; assay: Multiplex assay against human fibroblast; type: toxicity, cell-based; conditions: 24 h, 1 µM, compound concentration 1 uM, replicate 1
Population Tubulin-Different-Phenotype (%) reference
Measured Metric: Population Tubulin-Different-Phenotype (%)

1) N[C@@]1(C(=O)O)CO[C@H]2[C@H](C(=O)O)[C@H]21 [LY-379268]    23
2) CC[C@H]1OC(=O)[C@H](C)[C@@H](O[C@H]2C[C@@](C)(OC)[C@@H](O)[C@H](C)O2)[C@H](C)[C@@H](O[C@@H]2O[C@H](C)C[C@H](N(C)C)[C@H]2O)[C@@]2(C)CC(C)=C(O2)[C@H](C)[C@@H](O)[C@]1(C)O    45
3) CC(C)(C)c1ccc(S(=O)(=O)Nc2ccc(Cl)cc2C(=O)c2cc[n+]([O-])cc2)cc1 [VERCIRNON]    27
4) CCCn1c(=O)c2[nH]c(C3CCCC3)nc2n(CCC)c1=O    30

Hello, the source for this data is ChEMBL document CHEMBL5058577, in case you need it.
